# Assay Summary: in vitro
# Conditions Used: rat, gh3-tre-luc cells, AC50 (uM) modified / 1000, Tox21_110001=Tox21_202917; viability, 1 nM T3 present, 24 h
Measured Attribute: CC50 at 24 h

### Prompt Indicate its recorded CC50 at 24 h; the compound in question is C1CS1 [Ethylene sulfide]
### Response > 90 µM

====

# System: GH3-TRE-Luc cell line
# Conditions Used: read-out: AC50 (uM) modified / 1000; Tox21_110001=Tox21_300596; viability, 1 nM T3 present, 24 h
Measured Attribute: CC50

### Prompt Quick one: give measured CC50 for `Nc1nc(Cl)nc2c1ncn2[C@H]1C[C@H](O)[C@@H](CO)O1`
### Response 0.166 µM
